These data points were gathered from patent US20250197451A1.

In this section, each of the binders is paired with its reported Intensity (%).
Molecular target: T1, biotin-labelled EZH2 protein (UniProt Q15910 1-746, limits assumed, biotin label (EZ-link NHS-PEO4-Biotinylation kit))
T1 construct: Probe in solution (1 ug/ml) on the KDM2B peptide microarray; also called NHS-PEO4-Biotinylation-labelled EZH2 protein; recombinant protein
T1 sequence (Q15910 whole entry): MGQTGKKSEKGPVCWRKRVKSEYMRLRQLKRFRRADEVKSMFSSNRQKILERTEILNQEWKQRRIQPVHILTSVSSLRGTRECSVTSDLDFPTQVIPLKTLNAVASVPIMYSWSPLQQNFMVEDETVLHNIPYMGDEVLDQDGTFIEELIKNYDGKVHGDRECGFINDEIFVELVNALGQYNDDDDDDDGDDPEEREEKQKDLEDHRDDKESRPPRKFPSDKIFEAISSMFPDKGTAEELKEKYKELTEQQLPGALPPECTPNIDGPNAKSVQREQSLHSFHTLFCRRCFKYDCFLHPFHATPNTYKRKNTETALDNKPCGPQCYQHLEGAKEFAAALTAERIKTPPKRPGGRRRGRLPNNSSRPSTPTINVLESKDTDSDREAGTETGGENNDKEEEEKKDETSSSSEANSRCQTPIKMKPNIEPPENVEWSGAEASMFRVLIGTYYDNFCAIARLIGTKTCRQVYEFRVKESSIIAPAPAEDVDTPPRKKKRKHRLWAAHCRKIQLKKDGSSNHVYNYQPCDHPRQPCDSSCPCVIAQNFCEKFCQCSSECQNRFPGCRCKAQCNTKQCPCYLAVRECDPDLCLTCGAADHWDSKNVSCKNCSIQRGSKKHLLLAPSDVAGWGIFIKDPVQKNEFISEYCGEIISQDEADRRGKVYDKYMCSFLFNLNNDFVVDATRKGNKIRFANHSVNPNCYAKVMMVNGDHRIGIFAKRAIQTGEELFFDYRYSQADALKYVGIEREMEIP
Assay: KDM2B peptide array probed with biotin-EZH2 1 ug/ml, SA-HRP/ECL; Remark: noise;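 further: 100% is the highest background-corrected spot optical density on the membrane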
Provide the reading as a plain figure in %.

For the binder PPISPPPDSLPLDDG [peptide 210] , report Intensity (%).
0

For the binder PTSTPSEDQEALGKK [peptide 90] , report Intensity (%).
0.19

For the binder KCNHAGKTGKQKRGP [peptide 145] , report Intensity (%).
0

Further cases:
For the binder HVIRPPPISPPPDSL [peptide 209] , report Intensity (%).
0.32
